- Measurement target: Human recombinant PDE2A (hPDE2A) (Homo sapiens, UniProt O00408)
- Construct: made in house; host or cells: Sf9 insect cells (baculovirus)
- Sequence (O00408 whole entry): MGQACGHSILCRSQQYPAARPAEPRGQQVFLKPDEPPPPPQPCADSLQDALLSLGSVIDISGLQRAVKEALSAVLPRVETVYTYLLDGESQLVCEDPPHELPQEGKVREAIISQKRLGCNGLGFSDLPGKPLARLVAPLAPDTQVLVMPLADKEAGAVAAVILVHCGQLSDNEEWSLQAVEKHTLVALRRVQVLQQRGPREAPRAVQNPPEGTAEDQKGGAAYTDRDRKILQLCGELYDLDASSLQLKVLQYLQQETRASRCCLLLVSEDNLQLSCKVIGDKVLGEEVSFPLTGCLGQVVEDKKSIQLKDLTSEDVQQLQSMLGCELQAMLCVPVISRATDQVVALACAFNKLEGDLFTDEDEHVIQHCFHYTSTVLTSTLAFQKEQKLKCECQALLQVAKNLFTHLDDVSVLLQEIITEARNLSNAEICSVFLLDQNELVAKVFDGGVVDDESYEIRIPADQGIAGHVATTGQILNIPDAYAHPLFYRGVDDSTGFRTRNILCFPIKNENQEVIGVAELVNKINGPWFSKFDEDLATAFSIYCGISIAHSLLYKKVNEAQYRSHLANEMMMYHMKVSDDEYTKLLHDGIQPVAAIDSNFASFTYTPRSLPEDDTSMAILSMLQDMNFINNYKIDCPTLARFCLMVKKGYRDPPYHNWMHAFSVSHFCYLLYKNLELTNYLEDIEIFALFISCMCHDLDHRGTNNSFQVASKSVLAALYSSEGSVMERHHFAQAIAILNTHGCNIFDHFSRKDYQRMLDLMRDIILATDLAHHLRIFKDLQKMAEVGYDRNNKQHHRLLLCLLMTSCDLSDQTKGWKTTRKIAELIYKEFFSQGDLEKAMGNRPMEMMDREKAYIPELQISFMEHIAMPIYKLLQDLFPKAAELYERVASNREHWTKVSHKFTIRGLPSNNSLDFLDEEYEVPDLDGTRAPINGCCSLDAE
- Assay overview: In vitro assay PDE2A (SPA, 3H-cGMP)
- Format: biochemical
- Details: read-out: pIC50 PDE2 (converted)
Recorded endpoint: IC50 (nM)
The figure you give is taken to be in nM; do not add the unit.

1) CCCCOc1ccc(Cl)c(-c2nnc3c(C)nc4ccc(CN5CCCC5)cc4n23)c1	8.13
2) Cc1nc2ccc(CN3CCN(C)CC3)cc2n2c(-c3cc(OC(C)C)ccc3Cl)nnc12	102
3) Cc1nc2ccc(C(=O)NC3CCN(C)CC3)cc2n2c(-c3ccccc3Cl)nnc12	2.04
4) Cc1nc2ccc(CN3CCC(F)CC3)cc2n2c(-c3cc(OC(C)C)ccc3Cl)nnc12	30.2
5) Cc1nc2ccc(C(=O)NCc3cccnc3)cc2n2c(-c3ccccc3)nnc12	3.98
6) COC1CCCN(Cc2ccc3nc(C)c4nnc(-c5ccccc5Cl)n4c3c2)C1 (centres unmarked)	11
7) CCOc1ccc(Cl)c(-c2nnc3c(C)nc4ccc(CN5CCN(C)CC5)cc4n23)c1	40.7

Please turn your attention to the following entry.
## Input Fill blank: measured IC50 of the compound `CCNC(=O)c1ccc2nc(C)c3nnc(-c4cccnc4OC)n3c2c1` is ____.
## Output 27.5

###

- Test system: Apomorphine-induced agitation
- Assay overview: Reversal of Apomorphine-induced Agitation in Rats (APO)
- Type: in vivo, rat
- Details: oral route; apomorphine 1.0 mg/kg i.v.
This section presents compounds with their documented PO Max effect (cumulative agitation score over 60 min) values.
Please state the value as a number alone, without comment.

Solved cases (3 shown):
1. Cc1nc2ccc(OC(C)(F)F)cc2n2c(-c3ccccc3Cl)nnc12	19
2. Cc1nc2ccc(C(=O)NCc3ccccn3)cc2n2c(-c3ccc(Cl)cc3Cl)nnc12	19
3. Cc1nc2ccc(C(=O)NCCc3ccccc3)cc2n2c(-c3ccccc3)nnc12	22

Consider now this further compound.
## Input For `Cc1nc2ccc(C(=O)NCc3ccccn3)cc2n2c(-c3cc(Cl)ccc3Cl)nnc12` , what is its reported PO Max effect (cumulative agitation score over 60 min)?
## Output 19

###

- Tested on: Apomorphine-induced agitation
- Assay overview: Reversal of Apomorphine-induced Agitation in Rats (APO)
- Type: in vivo, rat
- Details: subcutaneous route; apomorphine 1.0 mg/kg i.v.
Recorded endpoint: SC Max effect (cumulative agitation score over 60 min)
Would you mind answering with just the numeric figure?

1. Cc1nc2ccc(C(=O)NCCN3CCCC3)cc2n2c(-c3ccccc3Cl)nnc12	24
2. CCOc1ccc(Cl)c(-c2nnc3c(C)nc4ccc(CN5CCOCC5)cc4n23)c1	24
3. Cc1nc2ccc(CN3CCOC(CCO)C3)cc2n2c(-c3ccccc3Cl)nnc12 (centres unmarked)	19
4. Cc1nc2ccc(C(=O)NCCN3CCCCC3)cc2n2c(-c3ccccc3Cl)nnc12	21

## Input Data request, read-out SC Max effect (cumulative agitation score over 60 min), for `CCOc1ccc(Cl)c(-c2nnc3c(C)nc4ccc(CN5CCC(F)CC5)cc4n23)c1`
## Output 24

###

- Measurement target: Human recombinant PDE2A (hPDE2A) (Homo sapiens)
- Construct: made in house; host or cells: Sf9 insect cells (baculovirus)
- Assay overview: In vitro assay PDE2A (SPA, 3H-cGMP)
- Format: biochemical
- Details: read-out: pIC50 PDE2 (converted)
IC50 strictly less than 10 nM = label 1. Otherwise label 0.

For orientation, consider the following solved cases.
1. CCCCOc1ccc(Cl)c(-c2nnc3c(C)nc4ccc(CNCC5CC5)cc4n23)c1	label 0
2. COc1ccc(Cl)c(-c2nnc3c(C)nc4ccc(C(=O)NCc5ccccn5)cc4n23)c1	label 1

## Input Decide: IC50 of `CCCCOc1cncc(-c2nnc3c(C)nc4ccc(CN5CCCC5)cc4n23)c1` strictly below 10 nM?
## Output label 0

## Input Is 10 nM strictly greater than the molecule's reported IC50? molecule: `CCOc1ccc(Cl)c(-c2nnc3c(C)nc4ccc(N5CCN(C)CC5)cc4n23)c1`
## Output label 0

## Input For this molecule, is IC50 lower than 10 nM? `Cc1nc2ccc(N3CCN(C)CC3)cc2n2c(-c3ccccc3Cl)nnc12`
## Output label 1

## Input I'd appreciate it if you could check whether `CCCCOc1cncc(-c2nnc3c(C)nc4ccc(Br)cc4n23)c1` has IC50 smaller than 10 nM.
## Output label 0

## Input Would you kindly verify if IC50 of `CCCCOc1ccc(Cl)c(-c2nnc3c(C)nc4ccc(CNC5CCC5)cc4n23)c1` is strictly less than 10 nM?
## Output label 0

###

- Measurement target: Human recombinant PDE2A (hPDE2A) (Homo sapiens, UniProt O00408)
- Construct: made in house; host or cells: Sf9 insect cells (baculovirus)
- Assay overview: In vitro assay PDE2A (SPA, 3H-cGMP)
- Assay type: biochemical
- Details: read-out: pIC50 PDE2 (converted)
Reported IC50 values for the following compounds.
Answer format: numeric, nM implied, no suffix.

1. Cc1nc2ccc(O)cc2n2c(-c3ccccc3Cl)nnc12	2
2. Cc1nc2cc(OCCc3ccccn3)ccc2n2c(-c3ccccc3Cl)nnc12	34.7
3. Cc1ncccc1-c1nnc2c(C)nc3ccc(C(F)(F)F)cc3n12	95.5

## Input Name the reported IC50 value associated with the compound `Cc1nc2ccc(N(C)C)cc2n2c(-c3ccccc3Cl)nnc12`
## Output 11.2

## Input Any idea what its IC50 is? The compound is `COc1cncc(-c2nnc3c(C)nc4ccc(OC(F)(F)F)cc4n23)c1`
## Output 81.3

## Input Request the reported IC50 associated with `Cc1nc2ccc(C(=O)NCc3ccccn3)cc2n2c(-c3ccc(Cl)cc3Cl)nnc12`
## Output 20.4

## Input Give the measured IC50 of `Cc1nc2ccc(C(=O)N(C)Cc3ccccc3)cc2n2c(-c3ccccc3)nnc12` .
## Output 19.1

## Input Would you kindly share the measured IC50 for `Cc1nc2ccc(C(=O)NCCc3ccccc3)cc2n2c(-c3ccccc3)nnc12` ?
## Output 3.47

###

- System: Apomorphine-induced agitation
- Assay overview: Reversal of Apomorphine-induced Agitation in Rats (APO)
- Type: in vivo, rat
- Details: oral route; apomorphine 1.0 mg/kg i.v.
Recorded endpoint: PO Max effect (cumulative agitation score over 60 min)
// keep it numeric: no unit symbol after the value

A selection of reference data follows.
1. Cc1nc2ccc(C(=O)NCc3cccnc3)cc2n2c(-c3ccccc3)nnc12	21
2. CNC(=O)c1ccc2nc(C)c3nnc(-c4ccccc4Cl)n3c2c1	21

## Input Notebook: pull reported PO Max effect (cumulative agitation score over 60 min) for Apomorphine-induced agitation, entry Cc1nc2ccc(CN3CCOC(F)(C(F)(F)F)C3)cc2n2c(-c3ccccc3Cl)nnc12 (stereo not drawn)
## Output 24

## Input Form entry - test system: Apomorphine-induced agitation; read-out: PO Max effect (cumulative agitation score over 60 min); compound: `Cc1nc2ccc(C(=O)NCc3ccccc3)cc2n2c(-c3ccccc3Cl)nnc12`
## Output 22

###

- Measurement target: Rat recombinant PDE10A (rPDE10A2) (Rattus norvegicus, UniProt Q9QYJ6)
- Construct: made in house; host or cells: Sf9 insect cells (baculovirus)
- Assay overview: In vitro assay PDE10A (SPA, 3H-cAMP)
- Format: biochemical
- Details: read-out: PIC50 PDE10 (converted)
Recorded endpoint: IC50 (nM)
Entry rule: numbers only, all in nM.

1) CCNC(=O)c1ccc2nc(C)c3nnc(-c4ccc(C)nc4)n3c2c1 [Compound B-182]	4170
2) CCNC(=O)c1ccc2nc(C)c3nnc(-c4ccccc4)n3c2c1 [Compound B-65]	251
3) Cc1nc2ccc(C(=O)OCc3ccccc3)cc2n2c(-c3ccccc3)nnc12 [Compound B-8]	380

Okay, next one:
## Input Kindly state the measured IC50 obtained for Cc1nc2ccc(C(=O)OCCCc3ccccc3)cc2n2c(-c3ccccc3)nnc12 [Compound B-158] with Rat recombinant PDE10A (rPDE10A2) (Rattus norvegicus, UniProt Q9QYJ6).
## Output 603

###

- Measurement target: Rat recombinant PDE10A (rPDE10A2) (Rattus norvegicus, UniProt Q9QYJ6)
- Construct: made in house; host or cells: Sf9 insect cells (baculovirus)
- Sequence (Q9QYJ6 1-794): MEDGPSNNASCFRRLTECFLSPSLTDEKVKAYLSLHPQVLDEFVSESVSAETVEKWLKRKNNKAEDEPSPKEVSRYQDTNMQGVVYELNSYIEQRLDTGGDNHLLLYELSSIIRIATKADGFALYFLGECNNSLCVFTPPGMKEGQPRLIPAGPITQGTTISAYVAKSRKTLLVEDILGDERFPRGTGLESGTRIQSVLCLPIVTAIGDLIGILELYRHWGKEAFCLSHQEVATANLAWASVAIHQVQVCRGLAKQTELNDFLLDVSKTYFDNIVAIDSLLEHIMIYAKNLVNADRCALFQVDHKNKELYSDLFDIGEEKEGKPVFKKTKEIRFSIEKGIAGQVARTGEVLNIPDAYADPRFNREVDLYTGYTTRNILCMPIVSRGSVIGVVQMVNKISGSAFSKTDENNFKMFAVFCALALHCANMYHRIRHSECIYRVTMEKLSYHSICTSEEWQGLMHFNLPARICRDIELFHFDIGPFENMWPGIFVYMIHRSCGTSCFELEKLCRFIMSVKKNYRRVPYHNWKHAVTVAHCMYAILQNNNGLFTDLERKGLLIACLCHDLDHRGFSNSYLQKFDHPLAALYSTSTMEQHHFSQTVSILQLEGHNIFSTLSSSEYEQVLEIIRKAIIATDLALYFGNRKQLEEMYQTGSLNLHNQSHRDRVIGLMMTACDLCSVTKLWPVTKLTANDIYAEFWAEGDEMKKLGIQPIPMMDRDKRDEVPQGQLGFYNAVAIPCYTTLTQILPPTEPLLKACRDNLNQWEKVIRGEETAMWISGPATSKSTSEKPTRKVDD
- Assay overview: In vitro assay PDE10A (SPA, 3H-cAMP)
- Format: biochemical
- Details: read-out: PIC50 PDE10 (converted)
Below, each of the molecules is paired with its reported log10 of IC50 value.
Could you please treat all values as log10 of IC50 in nM?

A selection of reference data follows.
1. CCCOc1ccc(Cl)c(-c2nnc3c(C)nc4ccc(CN5CCN(C)CC5)cc4n23)c1	3.00
2. Cc1nc2ccc(CN3CCC(N(C)C)CC3)cc2n2c(-c3ccccc3Cl)nnc12	2.45
3. CCOCc1cncc(-c2nnc3c(C)nc4ccc(CN(C)C)cc4n23)c1	3.79
4. Cc1nc2ccc(CNC(C)C)cc2n2c(-c3cncc(OCC4CC4)c3)nnc12	3.16
5. COc1cc(CNC(=O)c2ccc3nc(C)c4nnc(-c5ccccc5Cl)n4c3c2)cc(OC)c1OC	1.57

## Input Report log10 of IC50 for `Cc1nc2ccc(C(=O)OCCc3ccccc3)cc2n2c(-c3ccccc3)nnc12` please.
## Output 2.52

## Input Any idea what its log10 of IC50 is? The molecule is `CCCCOc1cncc(-c2nnc3c(C)nc4ccc(Br)cc4n23)c1`
## Output 3.53
